Across several publications, the following Ki results were reported for Receptor-interacting serine/threonine-protein kinase 1 (Homo sapiens).
MEASURED PARAMETER: Ki (nM)

These recorded examples may help you get a feel for the data.
C[C@H]1C[C@@H]1c1nc2n(n1)[C@H](c1ccccc1)C[C@@H]2F (single isomer, unassigned)    39
O[C@@H](c1cc2n(n1)[C@@H](c1ccccc1)C[C@H]2F)C1CC1 (single isomer, unassigned)    100
O=C(c1nc2n(n1)CCOC2c1ccccc1F)N1CC(F)(F)C1 (racemic)    722

[I] O=C(c1nc2n(n1)C(c1ccccc1F)CC2)N1CC(F)C1 (racemic)
[II] CC[C@@]1(C)OCc2cnc(C(=O)N3CC(F)(F)C3)cc21 (single isomer, unassigned)
Query block: Would you mind telling me which has the lower recorded Ki between I and II ? Answer by quoting the chosen item's label.
Result block: I

[I] N#C[C@H]1C[C@@H](S(=O)(=O)c2nc3n(n2)[C@H](c2ccccc2)C[C@@H]3F)C1
[II] O=S(=O)(c1nc2n(n1)[C@H](c1cc(F)cc(F)c1F)C[C@@H]2F)C(F)F (single isomer, unassigned)
[III] F[C@H]1C[C@@H](c2ccccc2)n2nc(-n3nnc4ccncc43)nc21 (single isomer, unassigned)
[IV] CC(F)S(=O)(=O)c1nc2n(n1)[C@H](c1ccccc1)C[C@@H]2F (stereo partly shown)
[V] CN1C(=O)[C@@H](NC(=O)c2cc3n(n2)CCO[C@H]3c2ccccc2)COc2cccnc21 (single isomer, unassigned)
Query block: Put the entries in order of Ki, starting with the largest number. Form field (ranking): labels in requested order.
Result block: I, III, V, IV, II
(I: 55 nM, III: 36 nM, V: 19 nM, IV: 13 nM, II: 7 nM)
